test: Solubility testing of tetrazolium salts in methanol and water (Table I); conditions: water
Note to self: class labels come from recorded Solubility, Water, ranges listed here: range 1 = under 3 m mol L, range 2 = from 3 m mol L up to 30 m mol L, range 3 = 30 m mol L and over

COc1ccccc1-[n+]1nc(-c2ccc3c(c2)OCO3)nn1-c1nc(C(F)F)c(Cl)s1 [DCMT BF4^-] ... range 1
COc1ccccc1-[n+]1nc(-c2ccc3c(c2)OCO3)nn1-c1nc(C(F)F)c(Cl)s1 [DCMT Br^-] ... range 1
COc1ccccc1-[n+]1nc(-c2ccc3c(c2)OCO3)nn1-c1nc(C(F)F)c(Cl)s1 [DCMT MeSO3^-] ... range 3
COc1cc(-[n+]2nc(-c3ccc4c(c3)OCO4)nn2-c2nc(C(F)F)c(Cl)s2)cc(OC)c1OC [DCT EtSO3^-] ... range 2
COc1cc(-[n+]2nc(-c3ccc4c(c3)OCO4)nn2-c2nc(C(F)F)c(Cl)s2)cc(OC)c1OC [DCT Br^-] ... range 1
COc1ccccc1-[n+]1nc(-c2ccc3c(c2)OCO3)nn1-c1nc(C(F)F)c(Cl)s1 [DCMT PeSO3^-] ... range 1
COc1ccccc1-[n+]1nc(-c2ccc3c(c2)OCO3)nn1-c1nc(C(F)F)c(Cl)s1 [DCMT PrSO3^-] ... range 2
COc1ccccc1-[n+]1nc(-c2ccc3c(c2)OCO3)nn1-c1nc(C(F)F)c(Cl)s1 [DCMT BuSO3^-] ... range 2
O=[N+]([O-])c1ccc(-n2nc(-c3ccccc3)n[n+]2-c2ccc(I)cc2)cc1 [INT MeSO3^-] ... range 3
COc1cc(-[n+]2nc(-c3ccc4c(c3)OCO4)nn2-c2nc(C(F)F)c(Cl)s2)cc(OC)c1OC [DCT PrSO3^-] ... range 2
COc1cc(-[n+]2nc(-c3ccc4c(c3)OCO4)nn2-c2nc(C(F)F)c(Cl)s2)cc(OC)c1OC [DCT MeSO3^-] ... range 3
COc1cc(-[n+]2nc(-c3ccc4c(c3)OCO4)nn2-c2nc(C(F)F)c(Cl)s2)cc(OC)c1OC [DCT BF4^-] ... range 1
COc1cc(-[n+]2nc(-c3ccc4c(c3)OCO4)nn2-c2nc(C(F)F)c(Cl)s2)cc(OC)c1OC [DCT NO3^-] ... range 1

----------
assay: Solubility testing of tetrazolium salts in methanol and water (Table I); details: methanol
Entries whose Solubility, Methanol is below 20 m mol L take Satisfied; entries at or above 20 m mol L take Not satisfied.

COc1ccccc1-[n+]1nc(-c2ccc3c(c2)OCO3)nn1-c1nc(C(F)F)c(Cl)s1 [DCMT PrSO3^-] ... Not satisfied
COc1cc(-[n+]2nc(-c3ccc4c(c3)OCO4)nn2-c2nc(C(F)F)c(Cl)s2)cc(OC)c1OC [DCT NO3^-] ... Not satisfied
COc1ccc(-c2nn(-c3nc4c(cc(OC)c5ccccc54)s3)[n+](-c3cc(OC)c(OC)c(OC)c3)n2)cc1 [MTM PrSO3^-] ... Not satisfied
COc1ccccc1-[n+]1nc(-c2ccc3c(c2)OCO3)nn1-c1nc(C(F)F)c(Cl)s1 [DCMT Br^-] ... Not satisfied
COc1ccccc1-[n+]1nc(-c2ccc3c(c2)OCO3)nn1-c1nc(C(F)F)c(Cl)s1 [DCMT BuSO3^-] ... Not satisfied
COc1cc(-[n+]2nc(-c3ccc4c(c3)OCO4)nn2-c2nc(C(F)F)c(Cl)s2)cc(OC)c1OC [DCT Br^-] ... Satisfied
COc1ccc(-c2nn(-c3nc4c(cc(OC)c5ccccc54)s3)[n+](-c3cc(OC)c(OC)c(OC)c3)n2)cc1 [MTM NO3^-] ... Satisfied
COc1ccccc1-[n+]1nc(-c2ccc3c(c2)OCO3)nn1-c1nc(C(F)F)c(Cl)s1 [DCMT BF4^-] ... Satisfied
COc1ccccc1-[n+]1nc(-c2ccc3c(c2)OCO3)nn1-c1nc(C(F)F)c(Cl)s1 [DCMT PeSO3^-] ... Not satisfied
COc1cc(-[n+]2nc(-c3ccc4c(c3)OCO4)nn2-c2nc(C(F)F)c(Cl)s2)cc(OC)c1OC [DCT MeSO3^-] ... Not satisfied
COc1ccccc1-[n+]1nc(-c2ccc3c(c2)OCO3)nn1-c1nc(C(F)F)c(Cl)s1 [DCMT MeSO3^-] ... Not satisfied
COc1cc(-[n+]2nc(-c3ccc4c(c3)OCO4)nn2-c2nc(C(F)F)c(Cl)s2)cc(OC)c1OC [DCT PrSO3^-] ... Not satisfied
COc1cc(-[n+]2nc(-c3ccc4c(c3)OCO4)nn2-c2nc(C(F)F)c(Cl)s2)cc(OC)c1OC [DCT EtSO3^-] ... Not satisfied
COc1ccc(-c2nn(-c3nc4c(cc(OC)c5ccccc54)s3)[n+](-c3cc(OC)c(OC)c(OC)c3)n2)cc1 [MTM BzSO3] ... Satisfied
COc1cc(-[n+]2nc(-c3ccc4c(c3)OCO4)nn2-c2nc(C(F)F)c(Cl)s2)cc(OC)c1OC [DCT BF4^-] ... Satisfied
COc1ccc(-c2nn(-c3nc4c(cc(OC)c5ccccc54)s3)[n+](-c3cc(OC)c(OC)c(OC)c3)n2)cc1 [MTM MeSO3^-] ... Not satisfied
COc1cc(-[n+]2nc(-c3ccc4c(c3)OCO4)nn2-c2nc(C(F)F)c(Cl)s2)cc(OC)c1OC [DCT BzSO3^-] ... Not satisfied

Origin of measurements: patent US5250695A
